# System: HOP-62 (Lung Adenocarcinoma)
# assay text: Bliss excess, mean over the matrix (fraction); higher = more synergy
Please go through the items and note down their Bliss excess.
Answers are plain numbers.

{"compound": "C=CCn1c(=O)c2cnc(Nc3ccc(N4CCN(C)CC4)cc3)nc2n1-c1cccc(C(C)(C)O)n1 [AZD1775] + C1CN(CCC1(C(=O)N[C@@H](CCO)C2=CC=C(C=C2)Cl)N)C3=NC=NC4=C3C=CN4 [Capivasertib] (first compound max 3 µM, partner max 3 µM)", "Bliss excess": -0.0872}
{"compound": "CN(CCO)CC[C@H](CSc1ccccc1)Nc1ccc(S(=O)(=O)NC(=O)c2ccc(N3CCC([C@@H](O)c4ccccc4-c4ccc(Cl)cc4)CC3)cc2)cc1S(=O)(=O)C(F)(F)F [AZD4320] + CCN(CCO)CCCOc1ccc2c(Nc3cc(CC(=O)Nc4cccc(F)c4)[nH]n3)ncnc2c1 [AZD2811] (first compound max 1 µM, 7x7, partner max 1 µM)", "Bliss excess": -0.0197}
{"compound": "CN(C)CCCOc1ccc(-c2ccc3ncc4c(c3c2)n(C2CCOCC2)c(=O)n4C)cn1 [AZD0156] + C[C@@H]1COCCN1C2=NC(=NC(=C2)C3(CC3)[S@](=N)(=O)C)C4=C5C=CNC5=NC=C4 [AZD6738] (first compound max 1 µM, 7x7, partner max 10 µM)", "Bliss excess": -0.0232}
{"compound": "Cc1c2c(nn1C)CSCc1cc(n(C)n1)CSc1cc(c3ccccc3c1)OCCCc1c(C(=O)O)n(C)c3c-2c(Cl)ccc13 [AZD5991] + C[C@@H](Nc1cc(F)cc(F)c1)c1cc(C(=O)N(C)C)cc2c(=O)cc(N3CCOCC3)oc12 [AZD8186] (first compound max 1 µM, 7x7, partner max 3 µM)", "Bliss excess": -0.0421}

# input for lookup
Per the reported HOP-62 (Lung Adenocarcinoma) data, C[C@@H]1COCCN1c1cc(C2([S@](C)(=N)=O)CC2)nc(-c2ccnc3[nH]ccc23)n1 [AZD6738] + O=C(c1cc(Cc2n[nH]c(=O)c3ccccc23)ccc1F)N1CCN(C(=O)C2CC2)CC1 [Olaparib] (first compound max 10 µM, 7x7, partner max 10 µM) has Bliss excess of 0.0092

* * *

# Tested on: AMO-1 (Plasma Cell Myeloma)
# assay text: Bliss excess, mean over the matrix (fraction); higher = more synergy
Please go through the items and note down their Bliss excess.

{"molecule": "C[C@@H](c1ccc2nccn2c1)n1nnc2ncc(-c3cnn(C)c3)nc21 [Savolitinib] + Cc1c2c(nn1C)CSCc1cc(n(C)n1)CSc1cc(c3ccccc3c1)OCCCc1c(C(=O)O)n(C)c3c-2c(Cl)ccc13 [AZD5991] (first compound max 1 µM, 7x7, partner max 1 µM)", "assay system": "AMO-1 (Plasma Cell Myeloma)", "Bliss excess": 0.0251}

# input for lookup
Per the reported AMO-1 (Plasma Cell Myeloma) data, O=C(c1cc(Cc2n[nH]c(=O)c3ccccc23)ccc1F)N1CCN(C(=O)C2CC2)CC1 [Olaparib] + COc1nnc2ccc(N3CCC(c4ccc(OCCN5CCN(C)C(=O)[C@H]5C)cc4)CC3)nn12 [AZD5153] (first compound max 10 µM, 7x7, partner max 1 µM) has Bliss excess of -0.0334

* * *

Please go through the items and note down their combination Emax.
# Test system: NCI-H1915 (Non-Small Cell Lung Carcinoma)
# assay text: combination Emax (second highest fraction inhibited in the dose matrix, 72 h); higher = more inhibition; extreme values may be limits of the assay

Below, 2 compounds whose answers are already recorded.
{"compound": "Cc1cc2ncnn2cc1Nc1ncc2c(n1)n(C1CCOCC1)c(=O)n2C [AZD7648] + CN(C)CCCOc1ccc(-c2ccc3ncc4c(c3c2)n(C2CCOCC2)c(=O)n4C)cn1 [AZD0156] (first compound max 10 µM, 7x7, partner max 1 µM)", "result": 0.294}
{"compound": "CC(=O)Nc1cccc(-n2c(=O)n(C3CC3)c(=O)c3c(Nc4ccc(I)cc4F)n(C)c(=O)c(C)c32)c1 [Trametinib] + Cc1nc(-c2cn3c(n2)-c2ccc(-c4cnn(C(C)(C)C(N)=O)c4)cc2OCC3)n(C(C)C)n1 [Taselisib] (first compound max 1 µM, 7x7, partner max 10 µM)", "result": 1}

Batch lookup, combination Emax per entry.
1. C[C@@H](c1ccc2nccn2c1)n1nnc2ncc(-c3cnn(C)c3)nc21 [Savolitinib] + CN(CC[C@H](CSC1=CC=CC=C1)NC2=C(C=C(C=C2)S(=O)(=O)NC(=O)C3=CC=C(C=C3)N4CCC(CC4)[C@H](C5=CC=CC=C5C6=CC=C(C=C6)Cl)O)S(=O)(=O)C(F)(F)F)CCO [AZD4320] (first compound max 1 µM, 7x7, partner max 1 µM)
2. C=CCn1c(=O)c2cnc(Nc3ccc(N4CCN(C)CC4)cc3)nc2n1-c1cccc(C(C)(C)O)n1 [AZD1775] + C1CN(CCC1(C(=O)N[C@@H](CCO)C2=CC=C(C=C2)Cl)N)C3=NC=NC4=C3C=CN4 [Capivasertib] (first compound max 3 µM, partner max 3 µM)

1: 0.132; 2: 0.657

Batch lookup, combination Emax per entry.
1. Cn1cnc2c(F)c(Nc3ccc(Br)cc3Cl)c(C(=O)NOCCO)cc21 [Selumetinib] + CCN(CCO)CCCOc1ccc2c(Nc3cc(CC(=O)Nc4cccc(F)c4)[nH]n3)ncnc2c1 [AZD2811] (first compound max 10 µM, 7x7, partner max 1 µM)
2. Cc1c2c(nn1C)CSCc1cc(n(C)n1)CSc1cc(c3ccccc3c1)OCCCc1c(C(=O)O)n(C)c3c-2c(Cl)ccc13 [AZD5991] + C=CCn1c(=O)c2cnc(Nc3ccc(N4CCN(C)CC4)cc3)nc2n1-c1cccc(C(C)(C)O)n1 [AZD1775] (first compound max 1 µM, partner max 1 µM)
3. CC(=O)c1c(C)c2cnc(Nc3ccc(N4CCNCC4)cn3)nc2n(C2CCCC2)c1=O [Palbociclib] + CN(CC[C@H](CSC1=CC=CC=C1)NC2=C(C=C(C=C2)S(=O)(=O)NC(=O)C3=CC=C(C=C3)N4CCC(CC4)[C@H](C5=CC=CC=C5C6=CC=C(C=C6)Cl)O)S(=O)(=O)C(F)(F)F)CCO [AZD4320] (first compound max 10 µM, 7x7, partner max 1 µM)
4. CCc1c2c(nc3ccc(O)cc13)-c1cc3c(c(=O)n1C2)COC(=O)[C@]3(O)CC [SN-38] + CN(C)CCCOc1ccc(-c2ccc3ncc4c(c3c2)n(C2CCOCC2)c(=O)n4C)cn1 [AZD0156] (first compound max 0.3 µM, 7x7, partner max 1 µM)

1: 0.6; 2: 0.649; 3: 0.491; 4: 0.609

Cited source: the supplement of paper PMC11061612
